This section presents IC50 values reported for Plasminogen (Homo sapiens) in the literature.
METRIC: IC50 (µM)

COMPOUND	METRIC	RELATION SIGN	ASSAY RESULT
NCc1ccc(CCCNCCNS(=O)(=O)c2ccc3ccccc3c2Cl)cc1	IC50	>	100
CN(C)C1=NCCN1Cc1ccc(C(=O)Nc2ccc(Cl)cc2C(=O)Nc2ccc(Cl)cn2)cc1	IC50	>	11
N=C(N)N1CCC(C[C@@H](NS(=O)(=O)Cc2ccccc2C(=O)O)C(=O)NCC(=O)N[C@H]2CCCN(C(=N)N)C2O)CC1 (stereo partly drawn)	IC50	=	2.5
CN(C)c1ccc(C(=O)O)c(Oc2nc(Oc3cccc(-c4cccc(CN)c4)c3)c(F)c(N(C)C)c2F)c1	IC50	=	2.9
CC[C@H](C)[C@H](NC(=O)C(O)Cc1ccc(O)c(Cl)c1)C(=O)N1C2CC(OS(=O)(=O)O)CCC2C[C@H]1C(=O)NCCCCN=C(N)N (stereo partly drawn)	IC50	=	8.71
Cn1c(CN2C(=O)CN(c3ccc4oc(=O)n(C)c4c3)C2=O)cc2cnc(C(=O)N[C@H](C#N)CCCCN)nc21	IC50	=	43
N=C(NO)c1nc(Cl)c(NCC(=O)O)nc1N	IC50	>	250
CCOC(=O)CN1C(=O)/C(=C(\C)c2cccc(NS(=O)(=O)c3ccc(-c4ccc(S(=O)(=O)NCCNC(=O)OC(C)(C)C)cc4)cc3)c2)SC1=S	IC50	=	20
